Origin of measurements: the RNAGym collection of RNA variant scans (doi:10.1002/anie.201605470)

B1: Osa-1-4 twister ribozyme (parent)
chain: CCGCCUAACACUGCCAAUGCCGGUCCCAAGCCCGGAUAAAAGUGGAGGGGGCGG

- Variants of: B1
- PROTOCOL_DESCRIPTION: self-cleavage, relative activity (ratio to wild type); higher = more cleavage; co-transcriptional
Give measured self-cleavage for each item. Keep answers brief.
Answers are plain numbers.

mutation_notation="A10C C15G" value_measured=0.04

Go through the list and state self-cleavage for each entry.
1. A46C C32G
2. C15G G44U
3. C11G G23C
4. A38U G51A
5. A40U G50A

1: 0.03; 2: 0.17; 3: 0.02; 4: 0.63; 5: 0.43

Go through the list and state self-cleavage for each entry.
1. C26U G50C
2. G13C G34A
3. A7C U24C
4. C27U G13A
5. C26U C9A
6. G30C U37G
7. A29C G47C
8. A46C G22U

[0.26, 0.04, 0.03, 0.04, 0.26, 0.05, 0.02, 0.04]

Go through the list and state self-cleavage for each entry.
1. A29G A8C
2. A40C G23C
3. C26A U43G
4. C11G C14G
5. A7G C31G
6. C33U C52U

1: 0.04; 2: 0.02; 3: 0.04; 4: 0.06; 5: 0.14; 6: 0.99

Go through the list and state self-cleavage for each entry.
1. G50C G54U
2. A28G G50A

1. 0.32
2. 0.28
